Tested on: HCC-2998 colon
Assay: NCI tumour cell line growth inhibition, 48 h

>  <COMPOUND>
COc1ccc(-c2ccccc2)c2[nH]c3c(c12)CCNC3=O

>  <REL>
>

>  <TGI (µM)>
100

$$$$
>  <COMPOUND>
CC1(C)OCN(c2ccc(S(N)(=O)=O)cc2)Cn2c1nc1ccccc12

>  <REL>
>

>  <TGI (µM)>
100

$$$$
>  <COMPOUND>
CC(=O)[CH-]C(=O)c1ccccc1.CC(=O)[CH-]C(=O)c1ccccc1.CC(C)CCC[C@H](C)C1CCC2[C@@H]3CC=C4C[C@@H]([O-])CC[C@]4(C)C3CC[C@@]21C.CC(C)CCC[C@H](C)C1CCC2[C@@H]3CC=C4C[C@@H]([O-])CC[C@]4(C)C3CC[C@@]21C.Cl.[Ti+4] (stereo not given in full)

>  <REL>
>

>  <TGI (µM)>
25

$$$$
>  <COMPOUND>
CCCCCCNC(=S)N/N=C(\C)c1ccccn1

>  <REL>
=

>  <TGI (µM)>
20.9

$$$$
>  <COMPOUND>
COc1cc(/C=C/C(=O)N2CCC=CC2=O)cc(OC)c1OC

>  <REL>
=

>  <TGI (µM)>
3.56

$$$$

====

System: SK-OV-3 ovarian
Test: NCI tumour cell line growth inhibition, 48 h; in the data active = GI50 below about 0.43 µM; inactive = the rest
Outcomes: active, inactive

>  <MOLECULE>
N#Cc1ccccc1C#C/C=C\C#Cc1ccccc1N

>  <LABEL CLASS>
inactive

$$$$
>  <MOLECULE>
CCOC(=O)c1c(NC(=O)c2ccccc2)sc2c3c(ccc12)OCN(C)C3

>  <LABEL CLASS>
inactive

$$$$
>  <MOLECULE>
C=C1C(=O)O[C@H]2[C@H]1CC/C(Cn1cc(-c3cccc(Cl)c3)nn1)=C\CC[C@@]1(C)O[C@@H]21

>  <LABEL CLASS>
inactive

$$$$
>  <MOLECULE>
CCN(CC)CCC(CNc1ccnc2cc(Cl)ccc12)c1ccccc1 (stereo unspecified)

>  <LABEL CLASS>
inactive

$$$$
>  <MOLECULE>
Cc1ccc(Cl)cc1NC(=O)c1cc2ccccc2cc1O

>  <LABEL CLASS>
active

$$$$
>  <MOLECULE>
CCOC(=O)/C(C#N)=C1\SS/C(=C(/C#N)C(=O)OCC)S1

>  <LABEL CLASS>
inactive

$$$$
>  <MOLECULE>
CC(c1ccccc1)[C@@H](C(=O)Nc1ccc(I)cc1F)N1C(=O)N[C@H](c2ccc(OC[C@H](O)CO)cc2)C1=O (stereo partly specified)

>  <LABEL CLASS>
inactive

$$$$
>  <MOLECULE>
O=c1c2ccccc2nc(-c2ccccc2Cl)n1-c1nnc(C(F)(F)F)s1

>  <LABEL CLASS>
inactive

$$$$
>  <MOLECULE>
ClCc1ccc(Cn2cnc3c(Cl)ncnc32)cc1

>  <LABEL CLASS>
inactive

$$$$
>  <MOLECULE>
COc1ccc(Cn2cc3c(c2)-c2oncc2CC3)cc1OC

>  <LABEL CLASS>
active

$$$$
>  <MOLECULE>
CCCCN=C(N)c1ccc(N2CCCN(c3ccc(C(N)=NCCCC)cc3)CC2)cc1

>  <LABEL CLASS>
inactive

$$$$
>  <MOLECULE>
CCCCCCCCCCCCCCCCCCOc1ccccc1CC(=O)OCC[N+](CC)(CC)CC

>  <LABEL CLASS>
inactive

$$$$
>  <MOLECULE>
O=C(Nc1cccc(-n2cc(-c3ccncc3)c(-c3ccc(O)c(Cl)c3)n2)c1)c1cc(C(F)(F)F)cc(C(F)(F)F)c1

>  <LABEL CLASS>
inactive

$$$$
>  <MOLECULE>
Cc1c(-c2ccc(O)cc2)oc(=O)c2ccc(O)cc12

>  <LABEL CLASS>
inactive

$$$$
>  <MOLECULE>
NC(Cc1c[nH]c2ccc(F)cc12)C(=O)O (stereo unspecified)

>  <LABEL CLASS>
inactive

$$$$
>  <MOLECULE>
COc1cc(/C=C/C(=O)/C=C/c2cc3ccc(Cl)cc3n(Cc3ccccc3)c2=O)ccc1O

>  <LABEL CLASS>
inactive

$$$$

====

compounds and their reported TGI
Tested on: UACC-62 melanoma
Experiment: NCI tumour cell line growth inhibition, 48 h

>  <COMPOUND>
C[C@H](CS)C(=O)N1c2ccccc2C[C@H]1C(=O)O

>  <TGI>
> 100 µM

$$$$
>  <COMPOUND>
Cc1cc(C)c2c(c1)CC1(Cc3ccc(C)c(C)c3C1=O)C2=O (stereo unspecified)

>  <TGI>
> 100 µM

$$$$
>  <COMPOUND>
CCN1CCN(c2nc3ccccc3nc2C(=O)c2ccc(OC)c(OC)c2)CC1

>  <TGI>
> 100 µM

$$$$
>  <COMPOUND>
O=C(O)C1CCCCN1C(=O)Cc1c[nH]c2ccccc12 (stereo unspecified)

>  <TGI>
> 100 µM

$$$$
>  <COMPOUND>
ClCc1ccc(Cn2cnc3c(Cl)ncnc32)cc1

>  <TGI>
19.5 µM

$$$$
>  <COMPOUND>
CCOC(=O)c1c(NC(=O)c2ccccc2)sc2c3c(ccc12)OCN(C)C3

>  <TGI>
3.27 µM

$$$$
>  <COMPOUND>
CCCCCCSCC/C(C)=N\OC

>  <TGI>
> 100 µM

$$$$
>  <COMPOUND>
NC(Cc1c[nH]c2ccc(F)cc12)C(=O)O (stereo unspecified)

>  <TGI>
> 2500 µM

$$$$
>  <COMPOUND>
COC1[C@H](NC(=O)OC(C)(C)C)C(=O)N1Cc1ccccc1 (stereo partly specified)

>  <TGI>
> 100 µM

$$$$
>  <COMPOUND>
C[N+]1(CCC(=O)c2ccccc2)CCC2CCC(C2)C1 (stereo unspecified)

>  <TGI>
> 100 µM

$$$$
>  <COMPOUND>
OC(Cc1ccc2ccccc2n1)(C(F)(F)Cl)C(F)(F)Cl

>  <TGI>
> 10 µM

$$$$
>  <COMPOUND>
COC(=O)c1nn2ccc3ccccc3c2c1C(=O)OC

>  <TGI>
> 100 µM

$$$$
>  <COMPOUND>
CC(=O)Nc1ccc(C(=O)NN2C(=O)C(Cl)C2c2cccc([N+](=O)[O-])c2)cc1 (stereo unspecified)

>  <TGI>
> 100 µM

$$$$
>  <COMPOUND>
O=C(/C=C1\N=C(c2ccccc2)N(c2nc3c(Cl)cc(Cl)cc3s2)C1=O)/C=C/c1ccccc1

>  <TGI>
> 100 µM

$$$$
>  <COMPOUND>
Cc1cc2ccc(OC(=O)c3ccc(N=C(N)N)cc3)cc2oc1=O

>  <TGI>
79.1 µM

$$$$
>  <COMPOUND>
NC(=O)NNCc1c(-c2ccccc2)no[n+]1[O-]

>  <TGI>
> 100 µM

$$$$
>  <COMPOUND>
CCCCCCCCCCCCCCCCc1c(C(=O)OC)nc(NN)[nH]c1=O

>  <TGI>
> 50 µM

$$$$
>  <COMPOUND>
CCN(CC)CCN1C(=O)C2C3C(=O)CC(C)(CC3C)C2C1=O (stereo unspecified)

>  <TGI>
> 100 µM

$$$$
>  <COMPOUND>
O=C(O)c1c(Cl)c(Cl)c(Cl)c(Cl)c1C(=O)Nc1ccc2cn[nH]c2c1

>  <TGI>
> 100 µM

$$$$
>  <COMPOUND>
CC12C(=C(C#N)C(=N)N1c1ccc(Cl)c(Cl)c1)C=C(O)CC2SCCS(=O)(=O)O (stereo unspecified)

>  <TGI>
> 100 µM

$$$$
>  <COMPOUND>
O=C(Cn1c(=O)oc2ccc(C(=O)c3ccc(F)cc3)cc21)c1ccccc1

>  <TGI>
> 100 µM

$$$$
>  <COMPOUND>
CCOC(=O)/C(C#N)=C1\SS/C(=C(/C#N)C(=O)OCC)S1

>  <TGI>
32.6 µM

$$$$
>  <COMPOUND>
COc1ccc(-n2c3c(c4cc(O)ccc42)Cc2ccccc2C3=O)cc1

>  <TGI>
> 100 µM

$$$$
>  <COMPOUND>
O=C(COc1ccc(OCC(=O)N2C(=O)CN(c3ccccc3)C2=S)cc1)N1C(=O)CN(c2ccccc2)C1=S

>  <TGI>
> 100 µM

$$$$
>  <COMPOUND>
COc1ccccc1/C=C/C1=C(C)CCC(c2ccccc2OC)C1C (stereo unspecified)

>  <TGI>
40.3 µM

$$$$
>  <COMPOUND>
Cc1ccc(Cl)cc1NC(=O)c1cc2ccccc2cc1O

>  <TGI>
2.65 µM

$$$$
>  <COMPOUND>
C[C@@H]1OC2(O)[C@H]3CCCN3S(=O)(=O)CCN2C1=O (stereo partly specified)

>  <TGI>
> 100 µM

$$$$
>  <COMPOUND>
Cc1nc(-n2nc(-c3ccccc3)cc2-c2ccccc2)sc1C(=O)/C=C/c1ccc(Cl)c(Cl)c1

>  <TGI>
19.9 µM

$$$$
>  <COMPOUND>
COc1ccccc1-n1c(N)c2c(C)c(-c3ccccc3)[nH]c2nc1=S

>  <TGI>
> 100 µM

$$$$
>  <COMPOUND>
O=C1C=CC(=Nc2cccc3c(N=C4C=CC(=O)O4)cccc23)O1

>  <TGI>
> 100 µM

$$$$
>  <COMPOUND>
O=[N+]([O-])c1ccc(C2=NOC(c3ccc(Cl)cc3)N2C23CC4CC(CC(C4)C2)C3)cc1 (stereo unspecified)

>  <TGI>
> 100 µM

$$$$
>  <COMPOUND>
Cc1nc(N)c(-c2ccccc2)s1

>  <TGI>
> 100 µM

$$$$
>  <COMPOUND>
O=C(O)C(O)C(O)C(O)C(O)C(=O)O (stereo unspecified)

>  <TGI>
> 100 µM

$$$$
>  <COMPOUND>
CN1CCN(c2ccc(NC(=O)c3cncnc3Nc3ccc(OCc4cccc(F)c4)c(Cl)c3)cc2)CC1

>  <TGI>
1.74 µM

$$$$
>  <COMPOUND>
CCCCNC(=NCc1ccccc1)NC#N

>  <TGI>
> 100 µM

$$$$
>  <COMPOUND>
COc1cc2c(cc1O)CN1CCC23C=C[C@@H](O)CC13 (stereo partly specified)

>  <TGI>
> 100 µM

$$$$
>  <COMPOUND>
CCCC(C)NC(=O)c1ccc(N(C)Cc2cnc3nc(N)nc(N)c3n2)cc1 (stereo unspecified)

>  <TGI>
25.7 µM

$$$$
>  <COMPOUND>
CCN(CC)CCC(CNc1ccnc2cc(Cl)ccc12)c1ccccc1 (stereo unspecified)

>  <TGI>
5.05 µM

$$$$
>  <COMPOUND>
CC1=CC(O)C(C(O)(C(F)(F)F)C(F)(F)F)C(C)(C)C1 (stereo unspecified)

>  <TGI>
> 10 µM

$$$$
>  <COMPOUND>
COc1cccc(C=C2N=C(c3ccccc3)N(n3c(-c4ccccc4)nc4ccccc4c3=O)C2=O)c1

>  <TGI>
> 100 µM

$$$$
>  <COMPOUND>
CN(C)/C=N\c1nncc2[nH]cnc12

>  <TGI>
> 100 µM

$$$$

Source listed as PubChem BioAssay (NCI).
